biological target: P-gp (Homo sapiens); type: in vitro ADME; conditions: human, in vitro cell test system (cell line not given), probe loperamide
Sequence (P08183 whole entry): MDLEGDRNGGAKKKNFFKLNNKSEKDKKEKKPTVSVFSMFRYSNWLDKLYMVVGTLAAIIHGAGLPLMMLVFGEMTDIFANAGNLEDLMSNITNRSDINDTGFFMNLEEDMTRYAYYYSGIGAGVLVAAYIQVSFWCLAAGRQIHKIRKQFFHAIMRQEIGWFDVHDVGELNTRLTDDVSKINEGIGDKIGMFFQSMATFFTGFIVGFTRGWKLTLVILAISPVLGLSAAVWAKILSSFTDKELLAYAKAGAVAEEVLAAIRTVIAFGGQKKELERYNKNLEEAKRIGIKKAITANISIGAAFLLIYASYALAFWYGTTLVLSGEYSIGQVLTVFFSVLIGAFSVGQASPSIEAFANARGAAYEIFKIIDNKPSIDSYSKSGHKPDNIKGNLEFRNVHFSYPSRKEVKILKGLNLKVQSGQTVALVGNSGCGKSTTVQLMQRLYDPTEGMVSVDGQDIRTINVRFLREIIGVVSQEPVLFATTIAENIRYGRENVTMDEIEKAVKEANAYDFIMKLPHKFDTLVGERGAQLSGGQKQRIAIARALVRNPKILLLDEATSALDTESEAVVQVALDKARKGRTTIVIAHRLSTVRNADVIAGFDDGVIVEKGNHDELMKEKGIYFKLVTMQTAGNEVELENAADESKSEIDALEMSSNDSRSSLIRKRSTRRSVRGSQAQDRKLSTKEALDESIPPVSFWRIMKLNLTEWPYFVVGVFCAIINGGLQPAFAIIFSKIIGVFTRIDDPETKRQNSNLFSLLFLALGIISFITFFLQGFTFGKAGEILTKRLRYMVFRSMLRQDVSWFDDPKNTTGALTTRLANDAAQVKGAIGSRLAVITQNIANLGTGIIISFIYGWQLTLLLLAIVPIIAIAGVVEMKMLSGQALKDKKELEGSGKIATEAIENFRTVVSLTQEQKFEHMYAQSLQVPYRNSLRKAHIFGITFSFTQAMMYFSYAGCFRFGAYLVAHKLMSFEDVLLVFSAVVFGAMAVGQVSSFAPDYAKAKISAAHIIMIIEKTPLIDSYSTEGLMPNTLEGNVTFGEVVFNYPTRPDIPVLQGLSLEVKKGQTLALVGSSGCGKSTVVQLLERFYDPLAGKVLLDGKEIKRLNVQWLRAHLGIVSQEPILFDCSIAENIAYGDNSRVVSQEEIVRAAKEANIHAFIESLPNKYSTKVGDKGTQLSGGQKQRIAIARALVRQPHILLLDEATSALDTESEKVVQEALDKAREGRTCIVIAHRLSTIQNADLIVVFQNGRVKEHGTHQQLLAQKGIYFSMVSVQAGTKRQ
measured_attribute: IC50

# input Quick one: IC50 for CS(=O)(=O)OC[C@H](O)[C@@H](O)COS(C)(=O)=O [treosulfan, L‐threitol‐1,4‐bis‐methanesulfonate] ?
# output > 1000 µM

* * *

measured_attribute: Ki (µM)
Give just the number in µM; leave the unit off.

# input GET /values?readout=Ki&system=CYP2C19 (Homo sapiens, UniProt P33261)&item= CS(=O)(=O)OC[C@H](O)[C@@H](O)COS(C)(=O)=O [treosulfan, L‐threitol‐1,4‐bis‐methanesulfonate]
# output 778

* * *

measured_attribute: IC50 (µM)
Give just the numeric value; µM need not be written.

# input Which measured IC50 belongs to CS(=O)(=O)OC[C@H](O)[C@@H](O)COS(C)(=O)=O [treosulfan, L‐threitol‐1,4‐bis‐methanesulfonate] , tested on CYP3A4 (Homo sapiens, UniProt P08684)?
# output 1870
